# Tested on: CAKI-1 renal
# experiment_description: NCI-60 one-dose screen, 48 h
# condition_label: 10 µM unless noted
The panel holds about 83,000 compounds, 20% with a hit somewhere; the sample as a whole holds those more often. The source made the active and inactive calls. How the source made its calls: active means growth percent below 10; inactive means the rest.
Outcome codes: Y (active), N (inactive)

compound	assigned_category
N#Cc1ccc(NC(=O)c2ccc3cccnc3c2O)cc1	Y
Cc1ccc(Cn2c(-c3nonc3N)nc3ccccc32)cc1	N
COc1ccc(C(=O)/C=C/c2ccc(/C=C/c3cc(OC)c(OC)c(OC)c3)cc2)cc1	N
CC(C(=O)n1cc(-c2ccccc2)c(-c2ccccc2)c1)c1ccccc1 (centres undefined)	N
O=C(CNC(=O)c1cccc2ccccc12)Nc1ccccc1Oc1ccccc1	N
Cc1ccc2c(c1)C(C)Cc1c(ncnc1-n1cnc3ccccc31)N2C (centres undefined)	N
CC(Br)C(O)c1cc2c(cc1Br)OCO2 (centres undefined)	N
CC(C)CCC[C@@H](C)[C@H]1CC[C@H]2[C@@H]3CC[C@H]4C/C(=N/O)CC[C@]4(C)[C@H]3CC[C@]12C	N
C=C1C(=O)O[C@H]2[C@H]1CC/C(COC(=O)NCc1cc(OC)c(OC)c(OC)c1)=C\CC[C@@]1(C)O[C@@H]21	N
CCOC(=O)C1=C(CSC(=S)N(C2CCCCC2)C2CCCCC2)N(C)C(=O)NC1c1ccccc1 (centres undefined)	N
CCCCCCC[C@@H](O)CC(=O)N[C@H](CCCCN)C(=O)N[C@H](Cc1c[nH]c2ccccc12)C(=O)NC(CCCCN)C(=O)N[C@H](CC(C)C)C(=O)N[C@H](Cc1ccccc1)C(=O)N[C@H](CCCCN)C(=O)N[C@H](CCCCN)C(=O)N[C@H](CC(C)C)C(=O)N1CCCC1C(=O)N[C@H](CCCCN)C(=O)N[C@H](Cc1ccccc1)C(=O)N[C@H](CC(C)C)C(=O)N[C@H](Cc1c[nH]cn1)C(=O)N[C@H](CC(C)C)C(=O)N[C@H](C)C(=O)N[C@H](CCCCN)C(=O)N[C@H](CCCCN)C(=O)N[C@H](Cc1ccccc1)C(=O)O (some centres undefined)	Y
CCOC(=O)/C=C\C(=O)NC(N)=O	N
Cc1ccc2c(c1)ncn2-c1ncnc2c1CC(C)c1ccccc1N2C (centres undefined)	N
O=S(=O)(c1ccccc1)n1ccc(-c2ccc3c(c2)CCO3)n1	N
CC1CCN(C(=O)CSc2nc3sc4c(c3c(=O)[nH]2)CCCC4)CC1	N
c1ccc2c(c1)Oc1ccccc1C2C1c2ccccc2Oc2ccccc21	N
COc1ccc(/C=C/C(=O)/C=C/c2cc3ccc(Cl)cc3[nH]c2=O)cc1	N
COc1ccc(Cn2cc(COc3cc(/C=C/C(=O)c4cc(OC)c(OC)c(OC)c4)ccc3OC)nn2)cc1	N
Cc1ccc(C2=NN(c3ccc(S(N)(=O)=O)cc3)C(c3cn(-c4ccccc4)nc3-c3ccccc3)C2)cc1 (centres undefined)	N
COc1ccccc1CNCCCN1C(=O)c2ccc3c4c(ccc(c24)C1=O)C(=O)N(CCCNCCCCNCCCCN)C3=O	N
CCCS(=O)(=O)c1nc(NC2CC2)cc(-c2ccc3c(ccn3C3CC(C)(C)NC(C)(C)C3)c2)n1	N
COc1ccc(/C=C\c2cc(OC)c(OC)c(OC)c2)c(NS(=O)(=O)c2ccc(C(C)(C)C)cc2)c1O	N
CC(=O)OCC1OC(OCC2OC(OC(C)=O)C(OC(C)=O)C(OC(C)=O)C2OC(C)=O)C(OC(C)=O)C(OC(C)=O)C1OC(C)=O (centres undefined)	N
C/C(=C\c1csc(C)n1)[C@@H]1C[C@@H]2O[C@]2(C)CCC[C@H](C)[C@H](O)[C@@H](C)C(=O)C(C)(C)[C@@H](O)CC(=O)N1	Y
O=C(Nc1cccc(Cl)c1)c1cc([N+](=O)[O-])ccc1O	N
O=C1NC(Cc2c[nH]c3ccccc23)C(=O)N1Cc1ccc(Cl)cc1 (centres undefined)	N
COc1cc(Cn2c(SCCC(=O)Nc3ccc(F)cc3)nc3ccccc3c2=O)cc(OC)c1OC	N
FC(F)(F)c1cccc(-n2nnc3cnc(Nc4ccc(N5CCCCC5)cc4)nc32)c1	N
Cc1oc2nc[nH]c(=O)c2c1C(=O)/C=C/c1ccc(Cl)cc1Cl	N
O=C1CCCCN1CCCCC#Cc1ccccc1C#Cc1ccc([N+](=O)[O-])cc1	N
NCCSC(c1ccccc1)(c1ccccc1)c1ccccc1	N
CCN1C(=O)/C(=c2\sc3n(c2=O)C2C(NN=3)N(CC)C(=S)N2CC)c2ccccc21 (centres undefined)	N
CC(=O)Nc1ccc2c(c1)/C(=C\C=C/c1ccc([N+](C)(C)C)cc1)c1ccccc1-2	N
O=[N+]([O-])c1c(S(=O)(=O)O)cc2cc(S(=O)(=O)O)ccc2c1[N+](=O)[O-]	N

From: PubChem BioAssay (NCI)
